Numbers sourced from ChEMBL document CHEMBL4513216.

protocolText: Toxicity liver stage against HepG2, at 10uM
Format: cell-based
Design: test concentration 10 uM, cell line HepG2-A16-CD81EGFP
conditionDetails: human, HepG2-A16-CD81EGFP cells; read-out: INHIBITION
Measured cytotoxicity at 10 µM accompanies every entry in the list below.
I only need the number, in %, no unit after it.

Here is how some molecules turned out for cytotoxicity at 10 µM.
molecule	reportedResult
CO[C@H]1CN(C(=O)c2ccc(C)o2)[C@@H]2CCCO[C@H]12	-153
CC(=O)N1CCO[C@H]2[C@H](OCCCn3cccn3)CC[C@@H]21	7.16
Cn1ccnc1C(=O)N1CCCC(Cn2cc(CO)nn2)C1 (stereo not drawn)	-1.88
COc1cc(OC)cc(C(=O)NCC(c2cccn2C)N2CCCC2)c1 (stereo not drawn)	11.2
CC1=N[C@@]2(CC[C@@H]3CN(Cc4ccccc4)C[C@@H]32)C(=O)N1CC1CC1	-0.302
CCS(=O)(=O)N1CC[C@H]2OCC[C@@]2(C(=O)NC)C1	-72.6
Cc1c(CNC(=O)C2CCCCCN2C)oc2ccccc12 (stereo not drawn)	11.4
OCC1CCCN1c1cc(NCCc2nccs2)ncn1 (stereo not drawn)	4.58
CCN(Cc1noc(C)n1)C(=O)C(c1ccc(C)cc1)N(C)C (stereo not drawn)	-5.21
CCNC(=O)[C@@H]1C[C@H](NC(=O)c2cncnc2C)CN1CCCSC	-11.7

Recorded cytotoxicity at 10 µM for Cc1cnc(C(=O)N2CCCC3(CCN(c4cnn(C)c4)C3=O)C2)cn1 (stereo not drawn) , please?
-5.79

Which cytotoxicity at 10 µM value belongs to CC(C)=CCN1CCN(Cc2cc(C)n[nH]2)CC1CCO (stereo not drawn) ?
1.96

Bench note: what cytotoxicity at 10 µM did Cc1ccc(NS(C)(=O)=O)c(C(=O)NCCC(=O)NC(C)C)c1 show?
-0.141
